target: ALDH1A2 (Homo sapiens, UniProt O94788); experiment: Inhibitor screening using purified enzymes: ALDH1A2 activity, retinoic acid production by HPLC (5 uM initial screen, then IC50); format: biochemical; design: histidine-tag (C); made in house; host or cells: bacterial expression (pET28 vector, IPTG induction); conditions: purified enzyme
Sequence (O94788 whole entry): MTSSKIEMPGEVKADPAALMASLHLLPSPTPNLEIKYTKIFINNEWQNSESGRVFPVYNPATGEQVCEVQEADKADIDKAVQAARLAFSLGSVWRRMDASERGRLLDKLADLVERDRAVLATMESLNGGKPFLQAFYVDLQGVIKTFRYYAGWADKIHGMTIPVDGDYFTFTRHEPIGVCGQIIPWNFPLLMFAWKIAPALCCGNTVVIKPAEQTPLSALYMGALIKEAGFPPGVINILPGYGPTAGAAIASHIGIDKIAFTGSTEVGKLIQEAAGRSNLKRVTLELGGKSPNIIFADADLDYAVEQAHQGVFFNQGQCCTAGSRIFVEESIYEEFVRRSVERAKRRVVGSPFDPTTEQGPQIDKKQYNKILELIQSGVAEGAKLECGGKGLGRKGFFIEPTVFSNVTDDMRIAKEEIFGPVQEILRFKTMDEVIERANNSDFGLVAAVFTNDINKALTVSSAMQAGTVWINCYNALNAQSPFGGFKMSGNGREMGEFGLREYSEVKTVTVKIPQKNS
QUANTITY: IC50 (µM)

These recorded examples may help you get a feel for the data.
| MOLECULE | IC50, µM |
| --- | --- |
| COC(=O)c1ccc(-n2cc(C(=O)Nc3cccc(F)c3)c(-c3ccc(S(C)(=O)=O)cc3)n2)cc1 | 0.179 |
| CC(=O)Nc1ccsc1C(=O)N1CCN(c2ccc([N+](=O)[O-])c(N3CCCC3)c2)CC1 | 0.388 |
| Cn1cccc1C(=O)N1CCN(c2ccc([N+](=O)[O-])c(N3CCCC3)c2)CC1 | 1.94 |
| CCN(Cc1nn(-c2ccccc2)cc1C(=O)Nc1cccc(F)c1)C(=O)C(Cl)Cl | 3.9 |
| COc1ccc(C(=O)N2CCN(c3ccc([N+](=O)[O-])c(N4CCCC4)c3)CC2)cc1 | 3.99 |

(I) CS(=O)(=O)c1ccc(-c2nn(-c3ccccc3)cc2C(=O)Nc2cccc(O)c2)cc1
(II) O=C(c1cccc(Cl)c1)N1CCN(c2ccc([N+](=O)[O-])c(N3CCCC3)c2)CC1
Q: I'm curious whether I or II has the smaller IC50 number. Which is it? Write down the label of the entry you select.
Ans: I

---

Target: ALDH1A1 (Homo sapiens, UniProt P00352)
Sequence (P00352 1-501): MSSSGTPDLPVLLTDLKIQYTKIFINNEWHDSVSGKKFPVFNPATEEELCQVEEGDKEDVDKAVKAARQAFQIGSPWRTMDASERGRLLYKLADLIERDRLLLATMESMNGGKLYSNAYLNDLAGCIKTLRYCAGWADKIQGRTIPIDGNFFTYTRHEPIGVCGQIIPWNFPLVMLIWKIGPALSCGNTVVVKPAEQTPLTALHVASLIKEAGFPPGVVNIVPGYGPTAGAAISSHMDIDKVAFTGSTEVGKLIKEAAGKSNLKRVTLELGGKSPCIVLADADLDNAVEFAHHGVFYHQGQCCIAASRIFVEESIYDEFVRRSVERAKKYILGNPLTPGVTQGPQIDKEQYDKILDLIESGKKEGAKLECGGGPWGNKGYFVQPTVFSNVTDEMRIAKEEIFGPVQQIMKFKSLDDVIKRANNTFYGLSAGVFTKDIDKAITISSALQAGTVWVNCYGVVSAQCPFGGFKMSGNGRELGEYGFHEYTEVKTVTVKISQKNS
Experiment: Cell-based enzyme assay, retinoic acid production in ALDH1A1/H1299 cells
Settings: cell-based
QUANTITY: EC50 (µM)

These recorded examples may help you get a feel for the data.
| MOLECULE | SYSTEM_NAME | EC50, µM |
| --- | --- | --- |
| CS(=O)(=O)c1ccc(-c2nn(-c3ccccc3)cc2C(=O)Nc2cccc(F)c2)cc1 | ALDH1A1 (Homo sapiens, UniProt P00352) | 5.5 |
| CCOC(=O)c1cn(-c2ccccc2)nc1-c1ccc(S(C)(=O)=O)cc1 | ALDH1A1 (Homo sapiens, UniProt P00352) | 0.723 |

(A) CON(C)C(=O)c1ccc(-c2nn(-c3ccc(C#N)cc3)cc2C(=O)Nc2cccc(F)c2)cc1
(B) N#Cc1ccc(-n2cc(C(=O)Nc3cccc(F)c3)c(-c3ccc(NC(=O)C(Cl)Cl)cc3)n2)cc1 [Compound 316a]
Q: Sort A and B by EC50 descending and give the first. Write down the label of the entry you select.
Ans: A
(A: 0.542 µM, B: 0.18 µM)

---

Target: ALDH2 (Homo sapiens, UniProt P05091)
Construct: histidine-tag (N); made in house; host or cells: bacterial expression (pETite vector, IPTG induction)
Sequence (P05091 18-517): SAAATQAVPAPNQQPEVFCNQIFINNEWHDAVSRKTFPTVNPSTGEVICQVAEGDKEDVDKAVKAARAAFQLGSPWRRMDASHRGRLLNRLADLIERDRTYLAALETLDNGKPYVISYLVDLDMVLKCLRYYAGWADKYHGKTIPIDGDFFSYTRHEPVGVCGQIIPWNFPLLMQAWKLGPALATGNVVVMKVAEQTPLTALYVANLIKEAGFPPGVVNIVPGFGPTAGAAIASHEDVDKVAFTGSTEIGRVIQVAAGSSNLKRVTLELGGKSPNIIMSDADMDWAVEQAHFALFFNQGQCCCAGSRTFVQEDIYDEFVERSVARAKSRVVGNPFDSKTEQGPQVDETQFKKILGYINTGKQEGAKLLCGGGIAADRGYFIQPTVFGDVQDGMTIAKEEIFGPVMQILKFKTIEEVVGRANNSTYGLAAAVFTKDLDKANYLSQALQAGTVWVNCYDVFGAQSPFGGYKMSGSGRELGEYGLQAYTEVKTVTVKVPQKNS
Assay: Purified ALDH2 assay with propanal, NADH fluorescence
Format: biochemical
Conditions: purified enzyme
Where a name gives a salt, the structure may show the parent alone.
QUANTITY: IC50 (µM)

These recorded examples may help you get a feel for the data.
| COMPOUND | ASSAY_VALUE |
| --- | --- |
| CS(=O)(=O)c1ccc(-c2nn(-c3ccc(OC(F)(F)F)cc3)cc2C(=O)Nc2cccc(F)c2)cc1 [Compound 258] | 100 |
| Cc1ccccc1-c1nn(-c2ccccc2)cc1C(=O)Nc1cccc(F)c1 [Compound 149] | 4.6 |
| CS(=O)(=O)c1ccc(-c2nn(-c3cccc(F)c3)cc2C(=O)Nc2cccc(C(F)(F)F)c2)cc1 [Compound 250] | 85.8 |
| CS(=O)(=O)c1ccc(-c2nn(-c3ccccc3)cc2C(=O)Nc2cccc(O)c2)cc1 [Compound 211] | 15.5 |
| CS(=O)(=O)c1ccc(-c2nn(-c3cccc(C#N)c3)cc2C(=O)Nc2cccc(C(F)(F)F)c2)cc1 [Compound 270] | 91.7 |

(P) O=C(Nc1ccccc1O)c1cn(-c2ccccc2)nc1-c1ccc([N+](=O)[O-])cc1 [Compound 165]
(Q) O=C(c1ccc[nH]1)N1CCN(c2ccc([N+](=O)[O-])c(N3CCCC3)c2)CC1 [Compound 344]
Q: I'm curious whether P or Q has the smaller IC50 number. Which is it? Write down the label of the entry you select.
Ans: P
(P: 23.3 µM, Q: 48.6 µM)

(P) CS(=O)(=O)c1ccc(-c2nn(-c3ccccc3)cc2C(=O)Nc2cccc(C(F)(F)F)c2)cc1 [Compound 208]
(Q) O=C(Nc1ccc(O)cc1)c1cn(-c2ccccc2)nc1-c1ccc([N+](=O)[O-])cc1 [Compound 167]
(R) CS(=O)(=O)c1ccc(-c2nn(-c3cccc(Cl)c3)cc2C(=O)Nc2cccc(F)c2)cc1 [Compound 239]
(S) Nc1cccc(NC(=O)c2cn(-c3ccccc3)nc2-c2ccc([N+](=O)[O-])cc2)c1 [Compound 173]
Q: Your job: order these 4 records by IC50, ascending. Answer with the labels in sequence, matching the requested order.
Ans: R, Q, S, P

(P) Nc1ccsc1C(=O)N1CCN(c2ccc([N+](=O)[O-])c(N3CCCC3)c2)CC1 [Compound 331, hydrochloride]
(Q) COc1cccc(NC(=O)c2cn(-c3ccccc3)nc2-c2ccc([N+](=O)[O-])cc2)c1 [Compound 103]
(R) COC(=O)c1cn(-c2ccccc2)nc1-c1ccc([N+](=O)[O-])cc1 [Compound 229]
(S) CS(=O)(=O)c1ccc(-c2nn(-c3ccccc3)cc2C(=O)Nc2cccc(F)c2O)cc1 [Compound 231]
(T) CS(=O)(=O)c1ccc(-c2nn(-c3ccccc3F)cc2C(=O)Nc2ccccc2O)cc1 [Compound 238]
Q: Your job: order these 5 records by IC50, ascending. Answer with the labels in sequence, matching the requested order.
Ans: R, P, T, S, Q

---

molecular target: ALDH1A1 (Homo sapiens); test: Cell-based enzyme assay, retinoic acid production in ALDH1A1/H1299 cells; conditions: cell-based
QUANTITY: EC50 (µM)

These recorded examples may help you get a feel for the data.
| COMPOUND | QUANTITY | ASSAY_VALUE |
| --- | --- | --- |
| CS(=O)(=O)c1ccc(-c2nn(-c3ccc(Cl)cc3)cc2C(=O)Nc2ccccc2O)cc1 [Compound 233] | EC50 | 13.2 |
| CC(=O)Oc1ccc(-c2nn(-c3ccccc3)cc2C=O)cc1 [Cmpd 35] | EC50 | 3.38 |
| C=C(C(=O)OC)c1ccc(-c2nn(-c3ccc(C#N)cc3)cc2C(=O)Nc2cccc(F)c2)cc1 [Compound 312] | EC50 | 0.251 |

(A) CS(=O)(=O)c1ccc(-c2nn(-c3ccc(F)cc3)cc2C(=O)Nc2cccc(F)c2)cc1 [Compound 241]
(B) N#Cc1ccc(-n2cc(C(=O)Nc3cccc(F)c3)c(-c3ccc(NC(=O)C(Cl)Cl)cc3)n2)cc1 [Compound 310]
Q: I'm curious whether A or B has the smaller EC50 number. Which is it? Write down the label of the entry you select.
Ans: B
(B: 0.14 µM, A: 10.9 µM)

(a) CS(=O)(=O)c1ccc(-c2nn(-c3ccccc3)cc2C(=O)Nc2cccc(O)c2)cc1 [Compound 211]
(b) O=C(O)c1ccc(-n2cc(C(=O)Nc3cccc(F)c3)c(-c3ccc(O)cc3)n2)cc1 [Compound 306]
Q: Sort a and b by EC50 descending and give the first. Write down the label of the entry you select.
Ans: b
